So I've got a bunch of molecules here, and I need their Kb values.
# MEASURED ON: rat dorsal aorta (Rattus norvegicus)
# Construct: from tissue; host or cells: rat dorsal aorta (smooth muscle)
# Sequence (P22002 whole entry): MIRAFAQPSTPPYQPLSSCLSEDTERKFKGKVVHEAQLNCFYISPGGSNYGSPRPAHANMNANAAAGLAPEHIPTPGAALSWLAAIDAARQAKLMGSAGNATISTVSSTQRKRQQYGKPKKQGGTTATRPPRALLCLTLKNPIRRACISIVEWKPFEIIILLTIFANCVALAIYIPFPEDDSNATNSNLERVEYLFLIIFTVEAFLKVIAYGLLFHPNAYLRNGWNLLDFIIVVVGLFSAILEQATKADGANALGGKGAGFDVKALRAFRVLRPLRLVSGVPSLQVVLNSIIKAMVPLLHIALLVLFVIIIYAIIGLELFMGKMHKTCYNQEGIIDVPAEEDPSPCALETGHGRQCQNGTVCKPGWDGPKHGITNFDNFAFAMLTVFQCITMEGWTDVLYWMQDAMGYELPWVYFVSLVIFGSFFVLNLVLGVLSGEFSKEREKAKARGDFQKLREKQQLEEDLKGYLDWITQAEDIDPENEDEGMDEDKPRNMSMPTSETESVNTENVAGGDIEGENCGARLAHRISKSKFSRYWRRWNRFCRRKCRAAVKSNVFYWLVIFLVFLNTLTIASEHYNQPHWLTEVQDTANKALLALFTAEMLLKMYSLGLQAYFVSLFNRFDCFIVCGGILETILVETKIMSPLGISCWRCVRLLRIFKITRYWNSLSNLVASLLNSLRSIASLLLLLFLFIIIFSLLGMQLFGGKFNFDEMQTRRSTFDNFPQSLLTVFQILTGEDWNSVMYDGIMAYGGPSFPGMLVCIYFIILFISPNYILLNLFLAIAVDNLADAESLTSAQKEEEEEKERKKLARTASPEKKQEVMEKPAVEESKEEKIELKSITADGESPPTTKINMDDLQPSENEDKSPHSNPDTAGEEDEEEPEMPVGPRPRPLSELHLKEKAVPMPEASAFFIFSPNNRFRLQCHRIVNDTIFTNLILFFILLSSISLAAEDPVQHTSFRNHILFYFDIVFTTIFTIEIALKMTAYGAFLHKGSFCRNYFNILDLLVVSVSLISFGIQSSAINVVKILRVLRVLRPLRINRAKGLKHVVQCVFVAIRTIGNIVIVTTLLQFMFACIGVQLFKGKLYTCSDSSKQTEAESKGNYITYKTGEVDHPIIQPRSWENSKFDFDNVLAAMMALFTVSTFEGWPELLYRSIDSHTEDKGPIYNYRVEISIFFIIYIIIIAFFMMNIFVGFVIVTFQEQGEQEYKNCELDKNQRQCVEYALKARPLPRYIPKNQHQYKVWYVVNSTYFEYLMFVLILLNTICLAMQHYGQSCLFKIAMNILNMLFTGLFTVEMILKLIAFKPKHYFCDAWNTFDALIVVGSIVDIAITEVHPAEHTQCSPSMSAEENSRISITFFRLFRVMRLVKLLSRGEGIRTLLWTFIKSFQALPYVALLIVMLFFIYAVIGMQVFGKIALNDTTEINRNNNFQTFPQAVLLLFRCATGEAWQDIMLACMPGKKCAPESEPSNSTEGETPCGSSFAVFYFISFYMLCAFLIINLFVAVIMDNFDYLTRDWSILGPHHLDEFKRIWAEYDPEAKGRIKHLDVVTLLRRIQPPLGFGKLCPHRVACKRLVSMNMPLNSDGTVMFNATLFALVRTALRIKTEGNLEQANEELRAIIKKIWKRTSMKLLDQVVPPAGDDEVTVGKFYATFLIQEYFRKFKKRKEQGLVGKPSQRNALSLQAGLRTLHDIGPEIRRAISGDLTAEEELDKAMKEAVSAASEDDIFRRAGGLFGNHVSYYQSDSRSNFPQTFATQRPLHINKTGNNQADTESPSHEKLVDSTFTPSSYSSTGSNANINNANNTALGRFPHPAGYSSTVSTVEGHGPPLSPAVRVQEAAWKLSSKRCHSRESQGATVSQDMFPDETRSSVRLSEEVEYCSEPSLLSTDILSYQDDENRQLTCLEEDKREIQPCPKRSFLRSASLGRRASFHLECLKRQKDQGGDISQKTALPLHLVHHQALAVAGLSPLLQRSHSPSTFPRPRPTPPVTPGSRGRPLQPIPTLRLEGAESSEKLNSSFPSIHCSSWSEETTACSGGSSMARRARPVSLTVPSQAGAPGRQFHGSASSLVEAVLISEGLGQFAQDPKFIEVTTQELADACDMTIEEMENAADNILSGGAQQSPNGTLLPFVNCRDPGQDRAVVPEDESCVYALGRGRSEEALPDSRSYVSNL
# Sequence (P54290 25-944 partner limits assumed): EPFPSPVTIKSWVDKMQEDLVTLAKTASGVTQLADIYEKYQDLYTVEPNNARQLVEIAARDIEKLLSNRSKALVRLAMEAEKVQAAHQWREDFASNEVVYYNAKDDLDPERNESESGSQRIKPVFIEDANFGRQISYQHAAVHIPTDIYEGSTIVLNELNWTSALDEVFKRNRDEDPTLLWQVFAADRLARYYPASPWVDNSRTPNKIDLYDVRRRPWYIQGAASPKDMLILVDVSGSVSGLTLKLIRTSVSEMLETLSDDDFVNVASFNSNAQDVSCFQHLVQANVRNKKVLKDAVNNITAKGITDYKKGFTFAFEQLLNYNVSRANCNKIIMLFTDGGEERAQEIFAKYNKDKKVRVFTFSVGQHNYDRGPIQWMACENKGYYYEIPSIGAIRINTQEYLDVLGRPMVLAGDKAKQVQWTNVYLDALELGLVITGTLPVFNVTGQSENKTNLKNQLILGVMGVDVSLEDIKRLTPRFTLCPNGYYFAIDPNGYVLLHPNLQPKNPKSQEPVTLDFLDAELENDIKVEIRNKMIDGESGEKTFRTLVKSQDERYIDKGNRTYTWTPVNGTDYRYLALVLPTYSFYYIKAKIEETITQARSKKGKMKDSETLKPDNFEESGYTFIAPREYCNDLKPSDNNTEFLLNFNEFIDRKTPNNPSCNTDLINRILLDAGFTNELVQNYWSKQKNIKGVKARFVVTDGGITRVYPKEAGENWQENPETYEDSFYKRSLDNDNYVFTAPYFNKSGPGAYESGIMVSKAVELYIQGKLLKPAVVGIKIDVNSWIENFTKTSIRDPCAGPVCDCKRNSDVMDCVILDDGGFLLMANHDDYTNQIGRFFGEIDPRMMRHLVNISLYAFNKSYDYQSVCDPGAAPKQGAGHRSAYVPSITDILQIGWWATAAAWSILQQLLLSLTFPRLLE
# Sequence (P54290 945-1091 partner limits assumed): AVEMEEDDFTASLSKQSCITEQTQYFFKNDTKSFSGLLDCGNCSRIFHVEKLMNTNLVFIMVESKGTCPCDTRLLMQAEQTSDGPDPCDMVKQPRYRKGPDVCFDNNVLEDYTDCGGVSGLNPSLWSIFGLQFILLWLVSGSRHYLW
# MEASUREMENT DESCRIPTION: Calcium blockade in rat dorsal aorta (calcium activity in smooth muscle)
# Format: cell-based
# CONDITION LABEL: negative logarithm of molar concentration giving dose ratio of 2, read-out: Calcium (pA2) (converted)
The reply should contain only the number, in nM.

Item COC(=O)C1=C(C)NC(C)=C(C(=O)OCCCNCC(O)COc2cccc(C)c2)C1c1cccc([N+](=O)[O-])c1 (stereo not drawn) : provide Kb
6.31

Item COC(=O)C1=C(C)NC(C)=C(C(=O)OCC(C)(C)NCC(O)COc2ccccc2C#N)C1c1cccc([N+](=O)[O-])c1 (stereo not drawn) : provide Kb
6.31

Item CCC1=C(C(=O)OCC(C)(C)NC(=O)Cc2ccc(OCC(O)CNC(C)C)cc2)C(c2cccc([N+](=O)[O-])c2)C(C(=O)OC)=C(C)N1 (stereo not drawn) [Example 57, Hemihydrate] : provide Kb
50.1

Item CCOC(=O)C1=C(C)NC(C)=C(C(=O)OCCCNCC(O)COc2ccccc2C#N)C1c1cccc([N+](=O)[O-])c1 (stereo not drawn) : provide Kb
6.31

Item CCOC(=O)C1=C(C)NC(C)=C(C(=O)OCCCC(=O)Nc2ccc(OCC(O)CNC(C)C)cc2)C1c1cccc([N+](=O)[O-])c1 (stereo not drawn) : provide Kb
10

Item CCC1=C(C(=O)OCCNCC(O)COc2ccccc2C#N)C(c2cccc([N+](=O)[O-])c2)C(C(=O)OC)=C(C)N1 (stereo not drawn) : provide Kb
12.6

---

So I've got a bunch of molecules here, and I need their log10(IC50) values.
# MEASURED ON: β-Receptor (Rattus norvegicus, UniProt P18090)
# Construct: from tissue; host or cells: rat heart
# Sequence (P18090 whole entry): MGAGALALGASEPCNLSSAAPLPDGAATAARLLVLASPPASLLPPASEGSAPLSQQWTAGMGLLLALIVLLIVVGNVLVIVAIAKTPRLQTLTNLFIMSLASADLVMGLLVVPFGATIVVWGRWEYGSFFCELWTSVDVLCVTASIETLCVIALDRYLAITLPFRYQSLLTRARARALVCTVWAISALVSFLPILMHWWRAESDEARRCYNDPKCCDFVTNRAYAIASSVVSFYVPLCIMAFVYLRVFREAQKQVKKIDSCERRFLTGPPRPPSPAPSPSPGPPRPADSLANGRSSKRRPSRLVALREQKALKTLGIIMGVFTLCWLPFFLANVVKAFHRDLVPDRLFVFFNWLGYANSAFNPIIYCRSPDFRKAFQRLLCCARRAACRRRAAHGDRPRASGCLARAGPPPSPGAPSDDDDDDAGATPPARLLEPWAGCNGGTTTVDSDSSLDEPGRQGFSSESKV
# MEASUREMENT DESCRIPTION: β-Receptor binding in animal heart tissue
# CONDITION LABEL: animal heart tissue; read-out: β Binding (IC50)
Where a name gives a salt, the structure may show the parent alone.
Units before log transform: nM; reported quantity: IC50; transform: log10.

Item COC(=O)C1=C(C)NC(C(C)C)=C(C(=O)OCC(C)(C)NCC(O)COc2ccccc2C#N)C1c1cccc([N+](=O)[O-])c1 (stereo not drawn) [Example 31] : provide log10(IC50)
2.90

Item CCOC(=O)C1=C(C)NC(C)=C(C(=O)OCCCC(=O)Nc2ccc(OCC(O)CNC(C)C)cc2)C1c1cccc([N+](=O)[O-])c1 (stereo not drawn) [Example 56] : provide log10(IC50)
2.79

Item CCC1=C(C(=O)OCCCNCC(O)COc2ccccc2C#N)C(c2cccc([N+](=O)[O-])c2)C(C(=O)OC)=C(C)N1 (stereo not drawn) [Example 35] : provide log10(IC50)
2.30

Item COC(=O)C1=C(C)NC(c2cccs2)=C(C(=O)OCC(C)(C)NCC(O)COc2ccccc2C#N)C1c1cccc([N+](=O)[O-])c1 (stereo not drawn) [Example 33] : provide log10(IC50)
1.85

Item CCC1=C(C(=O)OCCNCC(O)COc2ccccc2C#N)C(c2cccc([N+](=O)[O-])c2)C(C(=O)OC)=C(C)N1 (stereo not drawn) [Example 34] : provide log10(IC50)
3.78

Item COC(=O)C1=C(C)NC(c2ccccc2)=C(C(=O)OCC(C)(C)NCC(O)COc2ccccc2C#N)C1c1cccc([N+](=O)[O-])c1 (stereo not drawn) [Example 32] : provide log10(IC50)
2.48

Item CCOC(=O)C1=C(C)NC(C)=C(C(=O)OCCc2ccc(OCC(O)CNC(C)C)cc2)C1c1cccc([N+](=O)[O-])c1 (stereo not drawn) [Example 54, Hydrochloride Hydrate] : provide log10(IC50)
2.00

Item CCC1=C(C(=O)OCC(C)(C)NCC(O)COc2ccccc2Br)C(c2cccc([N+](=O)[O-])c2)C(C(=O)OC)=C(C)N1 (stereo not drawn) [Example 38] : provide log10(IC50)
2.26

Item CCC1=C(C(=O)OCC(C)(C)NCC(O)COc2ccccc2C#N)C(c2cccc([N+](=O)[O-])c2)C(C(=O)OC)=C(C)N1 (stereo not drawn) [Example 30] : provide log10(IC50)
2.30

Item COC(=O)C1=C(C)NC(C)=C(C(=O)OCCCNCC(O)COc2ccccc2C)C1c1cccc([N+](=O)[O-])c1 (stereo not drawn) [Example 44, Hydrochloride] : provide log10(IC50)
1.00

Item CC(=O)Nc1ccc(OCC(O)CNC(C)C)cc1 (stereo not drawn) [Practolol, reference compound] : provide log10(IC50)
3.00

Item COC(=O)C1=C(C)NC(C)=C(C(=O)OCC(C)(C)NCC(O)COc2ccccc2C#N)C1c1cccc([N+](=O)[O-])c1 (stereo not drawn) [Example 29] : provide log10(IC50)
1.30

Item CCC1=C(C(=O)OCC(C)(C)NCC(O)COc2ccc(CC(N)=O)cc2)C(c2cccc([N+](=O)[O-])c2)C(C(=O)OC)=C(C)N1 (stereo not drawn) [Example 45, Hemihydrate] : provide log10(IC50)
2.62

Item CCC1=C(C(=O)OCC(C)(C)NCC(O)COc2ccc(CCOC)cc2)C(c2cccc([N+](=O)[O-])c2)C(C(=O)OC)=C(C)N1 (stereo not drawn) [Example 39] : provide log10(IC50)
2.60

Data origin, for the record: patent US4994476A
